- Test system: C. parapsilosis
- Type: cell-based, C. parapsilosis (CCARM 14016)
- test.settings: 36 h, pH 7.2
No end group written: not given here.
observed.property: MIC

Could you tell me MIC for each of these substances? They are listed below.
1. GLNALKKVFQGIHEAIKLINNHVQ-NH2 [Pseudin-2]
2. GLNALKKVAQGIHEAAKLINNHVQ-NH2 [P2-LZ4]
3. GLNALKKVKQGKHEAIKLINNHVQ-NH2 [P2-LZ5]
4. GLNALKKVFQGAHEAIKLANNHVQ-NH2 [P2-LZ3]
5. GLNAAKKVFQGAHEAIKLINNHVQ-NH2 [P2-LZ1]
6. GANALKKVAQGIHEAIKLINNHVQ-NH2 [P2-LZ2]

>64 (>64) µM
48 µM
>64 (>64) µM
>64 (>64) µM
> 64 (>64) µM
48 µM
